B1: Retinoic acid receptor beta, residues 85 to 161; numbered along this chain, P10826 (parent)
chain: YKPCFVCQDKSSGYHYGVSACEGCKGFFRRSIQKNMIYTCHRDKNCVINKVTRNRCQYCRLQKCFEVGMSKESVRND

- Variants of: B1
- protocol-summary: abundance fitness (aPCA) (normalised: wild type 0, dead -1); higher = more abundant; growth selection in yeast, the domain comes from the species named
- protocol-conditions: Homo sapiens
# abundance fitness >= -0.06 gives class 1, anything below gives class 0

// inclusive: abundance fitness at least -0.06? input: YKPCFVCQDKSSGYHAGVSACEGCKGFFRRSIQKNMIYTCHRDKNCVINKVTRNRCQYCRLQKCFEVGMSKESVRND [Y16A] class 0

YKPCFVCQDKSSGYHYGVSACEGCKGFFRRSIQKNMIYTCHRDKNCVINKVTINRCQYCRLQKCFEVGMSKESVRND [R53I] ? class 1

YKPCFFCQDKSSGYHYGVSACEGCKGFFRRSIQKNMIYTCHRDKNCVINKVTRNRCQYCRLQKCFEVGMSKESVRND [V6F] ? class 0

YKPCFVCQDKSSQYHYGVSACEGCKGFFRRSIQKNMIYTCHRDKNCVINKVTRNRCQYCRLQKCFEVGMSKESVRND [G13Q] ? class 0

YKPCFVCQDKSSGYHYGVSACEGCKGFFRRSIQKNMIYTCHRDKNCVINKYTRNRCQYCRLQKCFEVGMSKESVRND [V51Y] ? class 1

YKPCFVCQDKSSGYHYGVSACEGCKGFFRRSIQKNMIYTCHRDKNCVINKVTRNRCQYHRLQKCFEVGMSKESVRND [C59H] ? class 0

YKPCFVCQDKSSGYHYGVSACEGCKGFFRRSIQKNMIYTCHRDKPCVINKVTRNRCQYCRLQKCFEVGMSKESVRND [N45P] ? class 1

YKPCFVCQDKSSGYHYGVSACEGCKGFFRRSIQKNMIYTCHRVKNCVINKVTRNRCQYCRLQKCFEVGMSKESVRND [D43V] ? class 0

YKPCFVCQDKSSGYHYGVSACEGCKGFFRRSIQKNMIYTCHRDKNCRINKVTRNRCQYCRLQKCFEVGMSKESVRND [V47R] ? class 0

YKPCFVCQDKSSGYHYGVSACEGCKGFFRTSIQKNMIYTCHRDKNCVINKVTRNRCQYCRLQKCFEVGMSKESVRND [R30T] ? class 0

YKPCFVCQDKSSGYCYGVSACEGCKGFFRRSIQKNMIYTCHRDKNCVINKVTRNRCQYCRLQKCFEVGMSKESVRND [H15C] ? class 1

YKPCFVCQDKSSGYHYGVSACEGCKAFFRRSIQKNMIYTCHRDKNCVINKVTRNRCQYCRLQKCFEVGMSKESVRND [G26A] ? class 1

YKPCFVCQDKSSYYHYGVSACEGCKGFFRRSIQKNMIYTCHRDKNCVINKVTRNRCQYCRLQKCFEVGMSKESVRND [G13Y] ? class 0

YKPIFVCQDKSSGYHYGVSACEGCKGFFRRSIQKNMIYTCHRDKNCVINKVTRNRCQYCRLQKCFEVGMSKESVRND [C4I] ? class 0

YKPCFVCQEKSSGYHYGVSACEGCKGFFRRSIQKNMIYTCHRDKNCVINKVTRNRCQYCRLQKCFEVGMSKESVRND [D9E] ? class 1
